Assay: Therapeutic index for inhibition of uninfected H9 cell growth to that of inhibition of HIV-1 replication in H9 lymphocyte cells.
Type: cell-based
Conditions: human, H9 lymphocyte cells (uninfected and HIV-1 infected); read-out: TI
Hi there, I'd appreciate the recorded selectivity ratio for every entry that follows.
One number for each entry.

{"molecule": "CC1(C)Oc2ccc3ccc(=O)oc3c2[C@@H](OC(=O)C23CCC(C)(C(=O)O2)C3(C)C)[C@H]1OC(=O)C12CCC(C)(C(=O)O1)C2(C)C (stereo partly drawn)", "reading": 137000}

Hello, I would appreciate it if you could give selectivity ratio for each entry below.
1. Cc1cc(O)nc2c3c(ccc12)OC(C)(C)[C@H](OC(=O)C12CCC(C)(C(=O)O1)C2(C)C)[C@@H]3OC(=O)C12CCC(C)(C(=O)O1)C2(C)C (stereo partly drawn)
2. Cc1c(O)nc2c3c(ccc2c1C)OC(C)(C)[C@H](OC(=O)C12CCC(C)(C(=O)O1)C2(C)C)[C@@H]3OC(=O)C12CCC(C)(C(=O)O1)C2(C)C (stereo partly drawn)

Outgoing:
[119000, 9100]
